- experiment description: Plasma pharmacokinetics of the flavonols after oral co-administration
- Format: in vivo, Sprague-Dawley (SD) rats
- assay conditions: male, Sprague-Dawley, rat, 5 mg/kg
quantity measured: AUC(0-t) (ng·h/mL)

(I) COc1ccc(-c2oc3ccccc3c(=O)c2OC)cc1
(II) COc1ccc2oc(-c3ccc(OC)c(OC)c3)c(OC)c(=O)c2c1
Query: Among I and II , whose measured AUC(0-t) is the smaller figure? Refer to your chosen entry by its label in the reply.
Reply: I
(I: 12.4 ng·h/mL, II: 22.3 ng·h/mL)

----------
- tested target: BCRP (Rattus norvegicus, UniProt Q80W57)
- Sequence (Q80W57 whole entry): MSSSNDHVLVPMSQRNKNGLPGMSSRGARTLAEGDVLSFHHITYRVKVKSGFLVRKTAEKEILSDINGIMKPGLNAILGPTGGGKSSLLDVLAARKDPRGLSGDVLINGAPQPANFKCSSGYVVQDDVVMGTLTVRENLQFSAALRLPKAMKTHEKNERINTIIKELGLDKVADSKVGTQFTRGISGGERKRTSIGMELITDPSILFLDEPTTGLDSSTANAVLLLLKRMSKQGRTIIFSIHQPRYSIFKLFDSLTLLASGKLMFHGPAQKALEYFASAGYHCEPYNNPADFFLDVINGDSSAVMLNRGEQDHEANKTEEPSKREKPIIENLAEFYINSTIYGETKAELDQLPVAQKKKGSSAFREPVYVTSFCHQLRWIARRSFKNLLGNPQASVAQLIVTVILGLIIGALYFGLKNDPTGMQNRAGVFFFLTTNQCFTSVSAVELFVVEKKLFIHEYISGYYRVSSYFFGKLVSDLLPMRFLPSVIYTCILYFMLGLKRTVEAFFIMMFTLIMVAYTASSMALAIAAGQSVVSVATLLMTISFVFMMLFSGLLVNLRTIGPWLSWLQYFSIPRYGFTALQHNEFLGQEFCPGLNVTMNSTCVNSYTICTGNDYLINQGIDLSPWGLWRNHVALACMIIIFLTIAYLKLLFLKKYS
- experiment description: In vivo pharmacokinetic interaction with the BCRP substrate sulfasalazine
- Set-up: species or system Sprague-Dawley (SD) rats
- assay conditions: male, Sprague-Dawley, rat, plasma, po, 2 mg/kg, t1/2 of sulfasalazine, sulfasalazine 2 mg/kg oral + 3,6,3’,4’-tetramethoxyflavone 5 mg/kg, rats
quantity measured: half-life (h)
Numbers only; they are read as h.

Query: Under BCRP (Rattus norvegicus, UniProt Q80W57): half-life value of O=C(O)c1cc(/N=N/c2ccc(S(=O)(=O)Nc3ccccn3)cc2)ccc1O [Sulfasalazine, sulfasalazine, reference compound] ?
Reply: 2.34

----------
- experiment description: Plasma pharmacokinetics of the flavonols after oral co-administration
- Format: in vivo, Sprague-Dawley (SD) rats
- assay conditions: male, Sprague-Dawley, rat, 5 mg/kg
quantity measured: Cmax (ng/mL)

COc1ccc(-c2oc3ccccc3c(=O)c2OC)cc1 13.5
COc1ccc2oc(-c3ccc(OC)c(OC)c3)c(OC)c(=O)c2c1 13.3

----------
- tested target: BCRP (Homo sapiens, UniProt Q9UNQ0)
- Sequence (Q9UNQ0 whole entry): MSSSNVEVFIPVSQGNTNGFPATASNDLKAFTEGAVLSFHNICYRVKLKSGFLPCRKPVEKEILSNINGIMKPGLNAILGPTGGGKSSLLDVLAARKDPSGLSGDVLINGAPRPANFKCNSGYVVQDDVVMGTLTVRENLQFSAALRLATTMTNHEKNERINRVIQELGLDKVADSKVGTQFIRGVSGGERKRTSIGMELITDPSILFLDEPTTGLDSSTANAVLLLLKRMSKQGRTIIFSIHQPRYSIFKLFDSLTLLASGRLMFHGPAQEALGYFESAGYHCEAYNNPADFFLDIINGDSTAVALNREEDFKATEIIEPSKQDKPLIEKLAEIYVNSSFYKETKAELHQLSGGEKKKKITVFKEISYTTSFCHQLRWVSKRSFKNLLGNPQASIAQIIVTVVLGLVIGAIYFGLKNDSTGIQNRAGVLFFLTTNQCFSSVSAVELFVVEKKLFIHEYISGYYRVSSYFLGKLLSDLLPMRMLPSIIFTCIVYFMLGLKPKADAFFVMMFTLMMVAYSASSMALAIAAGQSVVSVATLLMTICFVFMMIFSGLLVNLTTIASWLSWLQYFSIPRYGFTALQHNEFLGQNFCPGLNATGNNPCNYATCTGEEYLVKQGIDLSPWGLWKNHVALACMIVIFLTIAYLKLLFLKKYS
- experiment description: BCRP inhibition, prazosin accumulation assay in MDCKII-BCRP cells
- assay conditions: IC50 on BCRP activity, prazosin 5 µM, 20 min, MDCKII-BCRP
quantity measured: IC50

Worked examples, 2 molecules total:
molecule	IC50
Cc1c(O)cc(O)c2c(=O)c(O)c(-c3ccc(O)c(O)c3)oc12 [compound 32, 3,5,7,3’,4’-Pentahydroxy-8-methylflavone]	< 5 µM
O=c1c(O)c(-c2ccc(O)c(O)c2)oc2cc(O)cc(O)c12 [compound no. 27, 3,5,7,3’,4’-Pentahydroxyflavone]	< 5 µM

Query: Consider the molecule shown here: O=c1c(O)c(-c2cccc(O)c2)oc2cc(O)ccc12 [compound 8, 3,7,3’-Trihydroxyflavone] What is its recorded IC50?
Reply: < 5 µM

Query: Proceed to O=c1c(O)c(-c2ccccc2)oc2cc(O)ccc12 [compound no. 7, 3,7-Dihydroxyflavone]
Reply: < 5 µM

----------
- tested target: BCRP (Rattus norvegicus, UniProt Q80W57)
- experiment description: In vivo pharmacokinetic interaction with the BCRP substrate sulfasalazine
- Design: species or system Sprague-Dawley (SD) rats
- assay conditions: male, Sprague-Dawley, rat, plasma, po, 2 mg/kg, t1/2 of sulfasalazine, sulfasalazine 2 mg/kg oral + 3,4’-dimethoxyflavone 5 mg/kg, rats
quantity measured: half-life (h)
Write it as a number; the unit h goes unstated.

Query: half-life; subject: O=C(O)c1cc(/N=N/c2ccc(S(=O)(=O)Nc3ccccn3)cc2)ccc1O [Sulfasalazine, sulfasalazine, reference compound]
Reply: 1.76

----------
- tested target: BCRP (Homo sapiens)
- experiment description: BCRP inhibition, prazosin accumulation assay in MDCKII-BCRP cells
- assay conditions: human, pH 7.4
quantity measured: inhibition at 20 min, 2 µM (%)

compound	result units	inhibition at 20 min, 2 µM
COc1ccc(-c2oc3cc(OC)c(OC)c(OC)c3c(=O)c2OC)cc1OC [compound no. 54, 3,5,6,7,3’,4’-Hexamethoxyflavone]	%	52
O=c1c(O)c(-c2ccc(O)c(O)c2)oc2cc(O)cc(O)c12 [compound no. 27, 3,5,7,3’,4’-Pentahydroxyflavone]	%	45.9
COc1ccc2oc(-c3ccc(OC)c(OC)c3)c(OC)c(=O)c2c1 [compound no. 46, 3,6,3’,4’-Tetramethoxyflavone]	%	49.9
COc1cc(-c2oc3cc(O)cc(O)c3c(=O)c2O)ccc1O [compound no. 29, 3,5,7,4’-Tetrahydroxy-3’-methoxyflavone]	%	45.5
COc1ccc2c(=O)c(OC)c(-c3ccc(O)c(OC)c3)oc2c1 [compound no. 43, 4’-Hydroxy-3,7,3’-trimethoxyflavone]	%	45.2
